B1: library; a variant is named by its letters at N, in order (parent)
chain: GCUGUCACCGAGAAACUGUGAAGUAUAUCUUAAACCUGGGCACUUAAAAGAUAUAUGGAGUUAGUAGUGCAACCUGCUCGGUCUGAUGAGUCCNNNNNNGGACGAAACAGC

- Variants of: B1
- procedure_text: normalized RNA/DNA level with ligand (relative to sTRSVctl = 100) (log10 (% of sTRSVctl)); HEK293T; ligand: cyclic di-GMP (c-di-GMP-II aptamer); ligand concentration (+) RNA-Seq: 1 mM; higher = less ribozyme self-cleavage, higher mRNA level
- assay_conditions: reporter: mCherry (pCS4076), ligand present: yes
endpoint_name: normalized RNA/DNA level with ligand (log10)
A bare number is all that is needed in reply.

Example cases with answers are listed next.
ACAUGC : 1.77
UCCAUG : 1.85
AGCGUU : 1.82

Now for another entry.
Give its normalized RNA/DNA level with ligand (log10) value. Item: CCAGUC
1.83

The measured values listed here are drawn from the supplement of paper PMC6757056.
